Entries and their Percent monomer values follow.
- assay method text: Analytical size exclusion chromatography (percent monomer)
- Assay type: physicochemical
- experimental setup: NEM-conjugated cysteine variants; SEC, Abs280 monomer region 5.5-6 minutes vs oligomer region 4-5.3 minutes
- Method: Size exclusion chromatography was used to determine the aggregation state of the FN3 domains binding EGFR. […] Elution from the column was monitored by absorbance at 280 nm. The percent monomer for each protein was determined by integrating the Abs280 signal and comparing the peak in the monomer region (5.5-6 minutes) to the peaks in the oligomer region (4-5.3 minutes).

{"molecule": "S30C: cysteine variant of P54AR4-83v2 (SEQ ID NOS: 196 and 234); NEM and VC-MMAF conjugates (conjugate, NEM or vcMMAF conjugate; EGFR binding FN3 domain, NEM and VC-MMAF conjugates) MLPAPKNLVVSEVTEDSARLSWDDPWAFYECFLIQYQESEKVGEAIVLTVPGSERSYDLTGLKPGTEYTVSIYGVHNVYKDTNMRGLPLSAIFTT", "Percent monomer [%]": 94}
{"molecule": "V77C (conjugate, left off: small tags and cut ends) LPAPKNLVVSEVTEDSARLSWDDPWAFYESFLIQYQESEKVGEAIVLTVPGSERSYDLTGLKPGTEYTVSIYGVHNCYKDTNMRGLPLSAIFTT", "Percent monomer [%]": 92}
{"molecule": "W25C (conjugate, left off: small tags and cut ends) LPAPKNLVVSEVTEDSARLSWDDPCAFYESFLIQYQESEKVGEAIVLTVPGSERSYDLTGLKPGTEYTVSIYGVHNVYKDTNMRGLPLSAIFTT", "Percent monomer [%]": 76}
